molecular target: DNA topoisomerase 2-alpha (Homo sapiens) (UniProt P11388); assay: Inhibition of human recombinant topoisomerase 2alpha-mediated decatenation of kDNA at 100 uM after 60 mins by ethidium bromide staining based gel electrophoresis analysis
Sequence (P11388 whole entry): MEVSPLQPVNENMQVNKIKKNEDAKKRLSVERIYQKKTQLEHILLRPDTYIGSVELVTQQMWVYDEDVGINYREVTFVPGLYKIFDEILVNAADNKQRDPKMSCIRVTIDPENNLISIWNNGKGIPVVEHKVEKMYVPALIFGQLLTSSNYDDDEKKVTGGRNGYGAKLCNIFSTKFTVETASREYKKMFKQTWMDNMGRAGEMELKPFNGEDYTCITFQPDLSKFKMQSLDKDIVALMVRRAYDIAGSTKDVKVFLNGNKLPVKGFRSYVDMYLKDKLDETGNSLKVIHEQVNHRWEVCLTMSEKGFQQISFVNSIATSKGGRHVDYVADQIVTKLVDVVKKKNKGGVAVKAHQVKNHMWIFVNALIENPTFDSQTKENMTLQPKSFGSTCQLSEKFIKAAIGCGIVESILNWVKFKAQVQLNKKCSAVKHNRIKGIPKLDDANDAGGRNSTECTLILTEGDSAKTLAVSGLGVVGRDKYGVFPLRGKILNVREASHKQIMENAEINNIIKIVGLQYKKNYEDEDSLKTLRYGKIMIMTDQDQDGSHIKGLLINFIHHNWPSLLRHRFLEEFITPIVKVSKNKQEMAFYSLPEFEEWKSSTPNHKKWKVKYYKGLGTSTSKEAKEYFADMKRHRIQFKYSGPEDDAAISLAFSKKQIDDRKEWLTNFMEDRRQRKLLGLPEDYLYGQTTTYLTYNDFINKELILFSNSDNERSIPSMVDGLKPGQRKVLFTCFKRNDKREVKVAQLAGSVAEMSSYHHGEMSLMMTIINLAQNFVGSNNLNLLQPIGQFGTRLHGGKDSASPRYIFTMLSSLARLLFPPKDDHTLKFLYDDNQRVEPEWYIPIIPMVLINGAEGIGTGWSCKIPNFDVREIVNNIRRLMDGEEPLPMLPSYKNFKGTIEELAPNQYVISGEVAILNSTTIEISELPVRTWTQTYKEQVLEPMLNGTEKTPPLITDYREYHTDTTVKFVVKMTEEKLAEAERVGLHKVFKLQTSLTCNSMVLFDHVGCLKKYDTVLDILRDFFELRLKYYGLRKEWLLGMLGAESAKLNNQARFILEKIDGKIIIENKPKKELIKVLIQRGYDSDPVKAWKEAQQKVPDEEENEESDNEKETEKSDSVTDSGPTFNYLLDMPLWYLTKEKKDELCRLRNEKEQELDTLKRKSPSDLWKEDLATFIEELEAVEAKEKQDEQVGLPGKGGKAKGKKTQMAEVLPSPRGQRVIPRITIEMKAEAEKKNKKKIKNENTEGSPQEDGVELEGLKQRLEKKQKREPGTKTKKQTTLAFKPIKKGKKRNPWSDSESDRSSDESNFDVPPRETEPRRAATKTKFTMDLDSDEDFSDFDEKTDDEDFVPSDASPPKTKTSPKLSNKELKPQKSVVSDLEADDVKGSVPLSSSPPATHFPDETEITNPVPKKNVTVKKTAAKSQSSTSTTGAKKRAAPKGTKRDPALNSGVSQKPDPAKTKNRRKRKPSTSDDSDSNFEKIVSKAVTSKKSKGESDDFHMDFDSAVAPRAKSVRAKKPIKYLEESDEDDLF
The source made the active and inactive calls. The rule behind the calls is not given here.
Outcome (select one): active, inactive

Would you please look over these solved cases?
1) COc1cc2c[n+](C)c3ccc(O)cc3c2cc1OC : inactive
2) COc1ccc2c(c1)c1ccccc1c[n+]2C : active
3) COc1ccc2c(c1)c1cc(OC)c(OC)cc1c[n+]2C : active

Please examine the following record next.
query: # outcome recorded in this test, key = COc1ccc2c(c1)c[n+](C)c1ccc(O)cc21
result: inactive
